- Assay System: human D3 dopamine receptor (Homo sapiens, UniProt P35462)
- Sequence (P35462 whole entry): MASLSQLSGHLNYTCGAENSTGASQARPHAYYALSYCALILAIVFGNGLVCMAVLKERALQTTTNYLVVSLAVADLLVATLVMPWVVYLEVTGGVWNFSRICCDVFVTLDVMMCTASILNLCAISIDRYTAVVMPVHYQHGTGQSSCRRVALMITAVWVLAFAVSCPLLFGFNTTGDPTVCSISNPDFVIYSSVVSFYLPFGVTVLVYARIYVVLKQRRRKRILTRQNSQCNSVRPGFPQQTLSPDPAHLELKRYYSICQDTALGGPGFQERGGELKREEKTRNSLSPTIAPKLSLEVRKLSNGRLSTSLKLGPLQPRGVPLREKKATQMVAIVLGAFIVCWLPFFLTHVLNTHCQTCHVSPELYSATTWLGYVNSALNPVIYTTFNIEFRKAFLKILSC
pKi: −log10 of the molar value.
Reported Property: pKi

// worked examples, pKi included
NC(=O)CC(=O)N[C@H]1CC[C@H](CCN2CCN(c3ncc(C(F)(F)F)cc3Cl)CC2)CC1 [Example 8]; 7.78
CCC(=O)N[C@H]1CC[C@H](CCN2CCN(c3ncc(C(F)(F)F)cc3Cl)CC2)CC1 [Example 3]; 7.78

I: CC(=O)N[C@H]1CC[C@H](CCN2CCN(c3ccc(C(F)(F)F)nc3)CC2)CC1 [Example 7]
II: CC(=O)N[C@H]1CC[C@H](CCN2CCN(c3ncc(Cl)cc3Cl)CC2)CC1 [Example 6]
Lookup: Between I and II , which one has the lower reported pKi value? Return value: the label identifying the chosen record.
Found: II
(II: 8.02, I: 8.25)
